Attribute: BACE2 Biochemical FRET based assay pIC50
Target: recombinant BACE2 protein (Homo sapiens (Human), UniProt Q9Y5Z0)
Sequence (Q9Y5Z0 63-518): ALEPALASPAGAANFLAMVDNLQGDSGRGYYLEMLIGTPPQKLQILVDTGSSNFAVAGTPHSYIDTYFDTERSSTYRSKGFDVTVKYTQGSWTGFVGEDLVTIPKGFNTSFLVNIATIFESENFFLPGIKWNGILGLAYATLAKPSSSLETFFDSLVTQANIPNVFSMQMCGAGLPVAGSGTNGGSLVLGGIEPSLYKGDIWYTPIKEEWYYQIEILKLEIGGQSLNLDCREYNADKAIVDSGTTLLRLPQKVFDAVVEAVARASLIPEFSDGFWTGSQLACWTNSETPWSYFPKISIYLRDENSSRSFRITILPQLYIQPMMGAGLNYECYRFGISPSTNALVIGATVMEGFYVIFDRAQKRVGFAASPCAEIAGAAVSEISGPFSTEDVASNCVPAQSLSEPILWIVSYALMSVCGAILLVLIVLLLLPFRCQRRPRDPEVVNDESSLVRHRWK
Test: BACE2 Biochemical FRET based assay
Details: 0.4 μg/ml BACE2, 10 μM substrate, 450 min, pH 5.0
Text: This assay is a Fluorescence Resonance Energy Transfer Assay (FRET) based assay. The substrate for this assay contains the ‘Swedish’ Lys-Met/Asn-Leu mutation of the amyloid precursor protein (APP) beta-secretase cleavage site. […] Upon cleavage by the beta-secretase, the fluorophore Mca is separated from the quenching group Dnp, restoring the full fluorescence yield of the donor. The increase in fluorescence is linearly related to the rate of proteolysis. […]
Enter the number alone.

Some compounds with known BACE2 Biochemical FRET based assay pIC50 results, for comparison:
>>> df
                                smiles_data                                    metric  result
0  C[C@@]1(c2cc(NC(=O)c3cnc(OCC(F)(F)F)cn3)ccc2F)Cn2nncc2C(N)=N1  BACE2 Biochemical FRET based assay pIC50    7.22
1  C[C@@]1(c2cc(NC(=O)c3ccc(Cl)cn3)ccc2F)Cn2nncc2C(N)=N1  BACE2 Biochemical FRET based assay pIC50    8.56
2  C[C@@]1(c2cc(NC(=O)c3nn(C(F)F)cc3Cl)ccc2F)Cn2nncc2C(N)=N1  BACE2 Biochemical FRET based assay pIC50    8.73

Now, please, on to the next compound.
What value of measured BACE2 Biochemical FRET based assay pIC50 is listed for `NC1=N[C@](CF)(c2cc(NC(=O)c3ccc(F)cn3)ccc2F)Cn2nncc21` ? 8.49
